The origin of these recorded values is patent US20240101570A1.

Tested on: HCT116 WT cells
Assay: HCT116 WT cell proliferation / viability (CellTiter-Glo, 6 days)
Format: cell-based
Details: Homo sapiens, HCT-116, 144 h, HCT116 WT cells, 6 days, CellTiter-Glo; read-out: HCT-116 WT IC50
pIC50: −log10 of the molar value.
ASSAY ENDPOINT: pIC50

CN(Cc1ccc(C2CC2)nn1)C(=O)c1cc2c(cc1F)nc(N)c1cnn(C)c12 = 5.20

(I) CC(C)N(C(=O)c1cc2c3c(c(N)nc2cc1F)COC3)[C@@H](C)c1ccc(C(F)(F)F)cn1 (single isomer, unassigned)
(II) Cn1cc(N(Cc2ccc(C(F)(F)F)nn2)C(=O)c2cc3c4c(c(N)nc3cc2Cl)COC4)cn1
Prompt line: Kindly compare I with II and tell me which has the lower pIC50 figure. Choose, then provide that item's label.
Response line: I
